Target: Nucleocapsid protein N (SARS-CoV-2, UniProt P0DTC9 1-419)
Assay: MST; no Ubl1; 40 nM RNA
Conditions: protein: recombinant; tags: N-terminal His6-TEV, tag removed; chain copies: 2; label: 5'-Cy5; single strand
measuredQuantity: Kd (µM)
All answers are understood in µM, so give the number only.

Form: binder = UCUAAACGAAC (ssRNA) [11-mer TRS ssRNA] ; Kd = 5.1
